assay_comment: recombinant UMI read abundance after kanamycin selection (control-corrected) (log10(CPM+1)); higher = more efficient recombination; extreme values may be limits of the assay; sequences stand for … in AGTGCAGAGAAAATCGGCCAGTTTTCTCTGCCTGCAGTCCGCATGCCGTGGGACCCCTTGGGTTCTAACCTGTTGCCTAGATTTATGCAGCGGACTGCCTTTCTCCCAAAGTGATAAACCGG…AGGTTGGTTTCACT; site = the 11-nt donor;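 further: IS621 bridge recombinase in Escherichia coli cells against a fixed T5 target plasmid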
Below, each of the sequences is paired with its reported recombinant UMI read abundance (log10) value.
property: recombinant UMI read abundance (log10)

>>> test_value("TCCAATACATGGACCGGTTTTCCCGGTAATCCGTATTTGCC (site TCCAATACTGG)")
0
>>> test_value("GCGAAAACATGGACCGGTTTTCCCGGTAATCCGTATTTGCC (site GCGAAAACTCG)")
0
>>> test_value("CTTTTGGCATGGACCGGTTTTCCCGGTAATCCGTATTTGCT (site CATTTGGCTAG)")
0
>>> test_value("AGGAAGACATGGACCGGTTTTCCCGGTAATCCGTATTTGCA (site AGGAAGACTTG)")
2.88
>>> test_value("GTGGAGGCATGGACCGGTTTTCCCGGTAATCCGTATTTGTA (site GTGGAGGCTAA)")
0.557
